Reference for the values: paper PMC12613110

Experiment: Mammalian cytotoxicity, MTT assay (48 h)
Type: cell-based
Details: mouse, NCTC clone L929 cells
EXPERIMENTAL_ENDPOINT: CC50 at 48 h

**Q:** Which CC50 at 48 h is reported for this compound? C=C1[C@@H](C)CC[C@]2(C)[C@@H](C=O)C(C=O)=CC[C@@H]12 [Compound 6, 9-deoxymuzigadial]
**A:** > 200 µM
